- MEASURED_ON: mouse VISTA (mVISTA) (Mus musculus, UniProt Q9D659)
- Construct: expressed in transfected cells; host or cells: Human embryonic kidney 293T cells
- Sequence (Q9D659 33-308): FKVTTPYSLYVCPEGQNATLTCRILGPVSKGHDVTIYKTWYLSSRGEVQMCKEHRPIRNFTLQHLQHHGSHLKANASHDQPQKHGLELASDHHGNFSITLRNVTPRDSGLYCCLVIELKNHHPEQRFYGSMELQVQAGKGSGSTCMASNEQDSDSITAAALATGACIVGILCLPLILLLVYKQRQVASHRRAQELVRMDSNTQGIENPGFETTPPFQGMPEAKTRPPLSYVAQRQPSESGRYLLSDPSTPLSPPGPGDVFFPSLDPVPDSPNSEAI
- PROTOCOL_SUMMARY: Cell-Based Binding High-Content Assay For mVISTA (HC CBA mVISTA)
- TEST_CONTEXT: read-out: HC CBA mVISTA IC50
Positions of bridges follow the written chain, without caps; N, C: chain ends. Non-standard residues stand in square brackets, D forms with d. Residues, ends and D or L forms follow the SMILES beside them. Ahp(2) = CCCCC[C@H](N)C(=O)O; NHexGly = CCCCCCNCC(=O)O
READOUT_TYPE: IC50

What value of measured IC50 is listed for CCCCCCN1CC(=O)N[C@@H](Cc2ccc(O)cc2)C(=O)N[C@@H](C(C)C)C(=O)N[C@@H](CC(N)=O)C(=O)N[C@@H](CCCNC(=N)N)C(=O)N[C@@H](CC(C)C)C(=O)N[C@@H](CCCCC)C(=O)N2CCC[C@H]2C(=O)N[C@@H](C(C)C)C(=O)N2CCC[C@H]2C(=O)N[C@H](C(=O)NCC(=O)O)CSCC(=O)N[C@@H](Cc2ccccc2)C(=O)N[C@@H](Cc2ccc(O)cc2)C(=O)N[C@@H](CC(=O)O)C1=O [compound 1122] ({CH2CO}-FYD[NHexGly]YVNRL[Ahp(2)]PVPCG-OH; thioether N-14) ?
37.6 nM

====

- MEASURED_ON: mouse VISTA (mVISTA) (Mus musculus, UniProt Q9D659)
- Construct: expressed in transfected cells; host or cells: Human embryonic kidney 293T cells
- PROTOCOL_SUMMARY: Cell-Based Binding High-Content Assay For mVISTA (HC CBA mVISTA)
- TEST_CONTEXT: cell-based binding high-content assay, mVISTA; the 16th table; read-out: HC CBA mVISTA IC50
Positions of bridges follow the written chain, without caps; N, C: chain ends. Non-standard residues stand in square brackets, D forms with d. Residues, ends and D or L forms follow the SMILES beside them. 2Nal = N[C@@H](Cc1ccc2ccccc2c1)C(=O)O; Ahp(2) = CCCCC[C@H](N)C(=O)O; NHexGly = CCCCCCNCC(=O)O
READOUT_TYPE: IC50 (nM)
Answer in nM, number only, no unit symbol.

What value of measured IC50 is listed for CCCCCCN1CC(=O)N[C@@H](Cc2ccc(O)cc2)C(=O)N[C@@H](C(C)C)C(=O)NCC(=O)N[C@@H](CCCNC(=N)N)C(=O)N[C@@H](CC(C)C)C(=O)N[C@@H](CCCCC)C(=O)N2CCC[C@H]2C(=O)N[C@@H](C(C)C)C(=O)N[C@@H](CC(=O)O)C(=O)N[C@H](C(=O)NCC(N)=O)CSCC(=O)N[C@@H](Cc2ccc3ccccc3c2)C(=O)N[C@@H](Cc2ccc(O)cc2)C(=O)N[C@@H](CC(=O)O)C1=O [Ex 1283] ({CH2CO}-[2Nal]YD[NHexGly]YVGRL[Ahp(2)]PVDCG-NH2; thioether N-14) ?
18.9

====

Entries and their measured pIC50 follow.
- MEASURED_ON: mouse VISTA (mVISTA) (Mus musculus)
- Construct: expressed in transfected cells; host or cells: Human embryonic kidney 293T cells
- PROTOCOL_SUMMARY: Cell-Based Binding High-Content Assay For mVISTA (HC CBA mVISTA)
- TEST_CONTEXT: 293T cells expressing mouse VISTA; competition with biotinylated peptide (2 nM); read-out: HC CBA mVISTA IC50
- Description: Cell-Based Binding High-Content Assay For mVISTA Human embryonic kidney 293T cells (293T) expressing mouse VISTA (mVISTA) were used for the assessment of compounds competing with the binding of a biotinylated peptide. […] The plates were washed 3 times in dPBS, sealed, and read on a CellInsight NXT High Content Screening Platform IC903000 (Thermo Scientific). […]
Positions of bridges follow the written chain, without caps; N, C: chain ends. Non-standard residues stand in square brackets, D forms with d. Residues, ends and D or L forms follow the SMILES beside them. ξ: configuration not given here. N(3-phenylpropyl)Gly = O=C(O)CNCCCc1ccccc1; Ile(3ξ) = CCC(C)[C@H](N)C(=O)O; Ahp(2) = CCCCC[C@H](N)C(=O)O; NMeNle = CCCC[C@H](NC)C(=O)O; Tle = CC(C)(C)[C@H](N)C(=O)O; NHexGly = CCCCCCNCC(=O)O; Nle = CCCC[C@H](N)C(=O)O; Orn = NCCC[C@H](N)C(=O)O
Answer as the number alone; pIC50 is minus log10 of concentration in mol/L.

Sample answers from the record:
MOLECULE | MEASURED_ON | pIC50
CCCCCCN1CC(=O)N[C@@H](Cc2ccc(O)cc2)C(=O)N[C@@H](CC(C)C)C(=O)NCC(=O)N[C@@H](CCCNC(=N)N)C(=O)N[C@@H](CC(C)C)C(=O)N[C@@H](CCCCC)C(=O)N2CCC[C@H]2C(=O)N[C@@H](C(C)C)C(=O)N[C@@H](CC(=O)O)C(=O)N[C@H](C(=O)NCC(=O)O)CSCC(=O)N[C@@H](Cc2ccccc2)C(=O)N[C@@H](Cc2ccc(O)cc2)C(=O)N[C@@H](CC(=O)O)C1=O [Example 1016] ({CH2CO}-FYD[NHexGly]YLGRL[Ahp(2)]PVDCG-OH; thioether N-14) | mouse VISTA (mVISTA) (Mus musculus) | 7.68
CCCCCCN1CC(=O)N[C@@H](Cc2ccc(O)cc2)C(=O)N[C@@H](C(C)C)C(=O)NCC(=O)N[C@@H](CCCNC(=N)N)C(=O)N[C@@H](CC(C)C)C(=O)N[C@@H](CCCCC)C(=O)N2CCC[C@H]2C(=O)N[C@@H](C(C)C)C(=O)N[C@@H](CC(=O)O)C(=O)N[C@H](C(=O)NCC(=O)O)CSCC(=O)N[C@@H](Cc2ccccc2)C(=O)N[C@@H](Cc2ccc(O)cc2)C(=O)N[C@@H](CC(=O)O)C1=O [Example 1018] ({CH2CO}-FYD[NHexGly]YVGRL[Ahp(2)]PVDCG-OH; thioether N-14) | mouse VISTA (mVISTA) (Mus musculus) | 7.47
CCCCCCN1CC(=O)N[C@@H](Cc2ccc(O)cc2)C(=O)N[C@@H](CCCC)C(=O)N[C@@H](CC(=O)O)C(=O)N[C@@H](CCCN)C(=O)N[C@@H](CC(C)C)C(=O)N[C@@H](CCCCC)C(=O)N2CCC[C@H]2C(=O)N[C@@H](C(C)C)C(=O)N[C@@H](CO)C(=O)N[C@H](C(=O)NCC(N)=O)CSCC(=O)N[C@@H](Cc2ccccc2)C(=O)N[C@@H](Cc2ccc(O)cc2)C(=O)N[C@@H](CC(=O)O)C1=O [Example 1048] ({CH2CO}-FYD[NHexGly]Y[Nle]D[Orn]L[Ahp(2)]PVSCG-NH2; thioether N-14) | mouse VISTA (mVISTA) (Mus musculus) | 7.65
CCCCC[C@@H]1NC(=O)[C@H](CCCC)N(C)C(=O)[C@H](CCCN)NC(=O)[C@H](CC(N)=O)NC(=O)[C@H](CC(C)C)NC(=O)[C@H](Cc2ccc(O)cc2)NC(=O)CN(CCCc2ccccc2)C(=O)[C@H](CC(=O)O)NC(=O)[C@H](Cc2ccc(O)cc2)NC(=O)[C@H](Cc2ccccc2)NC(=O)CSC[C@@H](C(=O)NCC(N)=O)NC(=O)[C@H](CO)NC(=O)[C@H](C(C)(C)C)NC(=O)[C@@H]2CCCN2C1=O [Example 1084] ({CH2CO}-FYD[N(3-phenylpropyl)Gly]YLN[Orn][NMeNle][Ahp(2)]P[Tle]SCG-NH2; thioether N-14) | mouse VISTA (mVISTA) (Mus musculus) | 7.42
CCCCCCN1CC(=O)N[C@@H](Cc2ccc(O)cc2)C(=O)N[C@@H](C(C)CC)C(=O)NCC(=O)N[C@@H](CCCNC(=N)N)C(=O)N[C@@H](CC(C)C)C(=O)N[C@@H](CCCCC)C(=O)N2CCC[C@H]2C(=O)N[C@@H](C(C)C)C(=O)N[C@@H](CO)C(=O)N[C@H](C(=O)NCC(=O)O)CSCC(=O)N[C@@H](Cc2ccccc2)C(=O)N[C@@H](Cc2ccc(O)cc2)C(=O)N[C@@H](CC(=O)O)C1=O (some centres unmarked) [Example 1059] ({CH2CO}-FYD[NHexGly]Y[Ile(3ξ)]GRL[Ahp(2)]PVSCG-OH; thioether N-14) | mouse VISTA (mVISTA) (Mus musculus) | 7.52

What value of measured pIC50 is listed for CCCCCCN1CC(=O)N[C@@H](Cc2ccc(O)cc2)C(=O)N[C@@H](CCCC)C(=O)N[C@@H](CC(=O)O)C(=O)N[C@@H](CCCNC(=N)N)C(=O)N[C@@H](CC(C)C)C(=O)N[C@@H](CCCCC)C(=O)N2CCC[C@H]2C(=O)N[C@@H](C(C)C)C(=O)N[C@@H](CC(=O)O)C(=O)N[C@H](C(=O)N[C@@H](CCC(=O)O)C(N)=O)CSCC(=O)N[C@@H](Cc2ccccc2)C(=O)N[C@@H](Cc2ccc(O)cc2)C(=O)N[C@@H](CC(=O)O)C1=O [Example 1005] ({CH2CO}-FYD[NHexGly]Y[Nle]DRL[Ahp(2)]PVDCE-NH2; thioether N-14) ?
7.90

What value of measured pIC50 is listed for CCCCCCN1CC(=O)N[C@@H](Cc2ccc(O)cc2)C(=O)N[C@@H](CCCC)C(=O)NCC(=O)N[C@@H](CCCNC(=N)N)C(=O)N[C@@H](CC(C)C)C(=O)N[C@@H](CCCCC)C(=O)N2CCC[C@H]2C(=O)N[C@@H](C(C)C)C(=O)N[C@@H](CC(N)=O)C(=O)N[C@H](C(=O)NCC(=O)O)CSCC(=O)N[C@@H](Cc2ccccc2)C(=O)N[C@@H](Cc2ccc(O)cc2)C(=O)N[C@@H](CC(=O)O)C1=O [Example 1028] ({CH2CO}-FYD[NHexGly]Y[Nle]GRL[Ahp(2)]PVNCG-OH; thioether N-14) ?
8.28

What value of measured pIC50 is listed for CCCCCCN1CC(=O)N[C@@H](Cc2ccc(O)cc2)C(=O)N[C@@H](CCCCN)C(=O)N[C@@H](CC(N)=O)C(=O)N[C@@H](CCCNC(=N)N)C(=O)N[C@@H](CC(C)C)C(=O)N[C@@H](CCCCC)C(=O)N2CCC[C@H]2C(=O)N[C@@H](C(C)C)C(=O)N[C@@H](CO)C(=O)N[C@H](C(=O)NCC(=O)O)CSCC(=O)N[C@@H](Cc2ccccc2)C(=O)N[C@@H](Cc2ccc(O)cc2)C(=O)N[C@@H](CC(=O)O)C1=O [Example 1058] ({CH2CO}-FYD[NHexGly]YKNRL[Ahp(2)]PVSCG-OH; thioether N-14) ?
7.41

Source of measurements: patent US20240218022A1
